# PROTOCOL_NOTES: Oral bioavailability in dog at 10 mg/kg
# Assay type: ADME, organism-based, Canis lupus familiaris
# TEST_CONTEXT: in vivo
READOUT_LABEL: bioavailability (%)
Answers are plain numbers, in %.

# lookup: bioavailability of CN(C)C[C@@H](OC(=O)N1Cc2c(NC(=O)C(C)(C)C)n[nH]c2C1(C)C)c1ccccc1
20

---

# TARGET_OR_SYSTEM: Serine/threonine-protein kinase PAK 5 (Homo sapiens, UniProt Q9P286)
# Sequence (Q9P286 whole entry): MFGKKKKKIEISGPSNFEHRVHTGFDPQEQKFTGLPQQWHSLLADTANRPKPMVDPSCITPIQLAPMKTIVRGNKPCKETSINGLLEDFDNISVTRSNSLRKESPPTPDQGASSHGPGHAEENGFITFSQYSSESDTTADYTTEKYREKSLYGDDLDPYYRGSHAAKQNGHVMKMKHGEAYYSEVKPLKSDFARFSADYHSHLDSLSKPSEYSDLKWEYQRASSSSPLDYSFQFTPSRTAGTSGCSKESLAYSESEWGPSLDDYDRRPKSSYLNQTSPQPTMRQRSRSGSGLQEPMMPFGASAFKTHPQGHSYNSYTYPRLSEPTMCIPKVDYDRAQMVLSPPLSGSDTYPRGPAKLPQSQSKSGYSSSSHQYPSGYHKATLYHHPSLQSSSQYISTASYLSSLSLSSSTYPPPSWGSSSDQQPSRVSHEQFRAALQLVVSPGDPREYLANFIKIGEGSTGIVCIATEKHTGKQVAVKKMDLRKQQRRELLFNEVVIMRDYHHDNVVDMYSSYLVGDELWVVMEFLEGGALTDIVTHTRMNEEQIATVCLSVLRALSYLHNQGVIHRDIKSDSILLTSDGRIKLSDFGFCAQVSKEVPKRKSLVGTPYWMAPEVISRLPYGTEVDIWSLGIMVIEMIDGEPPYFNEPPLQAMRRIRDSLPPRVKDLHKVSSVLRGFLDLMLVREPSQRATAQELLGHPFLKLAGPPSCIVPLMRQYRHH
pKd: −log10 of the molar value.
READOUT_LABEL: pKd

// lookup pKd | system=Serine/threonine-protein kinase PAK 5 (Homo sapiens, UniProt Q9P286) | key= CCN1c2ccc(F)cc2N=C(NC2CCN(C(=O)NC(C)(C)C)C2)c2cc(Cl)ccc21 (stereo unspecified)
< 4.40
